Molecular target: OsWOX13 (Oryza sativa, UniProt Q5QMM3 1-267)
Sequence: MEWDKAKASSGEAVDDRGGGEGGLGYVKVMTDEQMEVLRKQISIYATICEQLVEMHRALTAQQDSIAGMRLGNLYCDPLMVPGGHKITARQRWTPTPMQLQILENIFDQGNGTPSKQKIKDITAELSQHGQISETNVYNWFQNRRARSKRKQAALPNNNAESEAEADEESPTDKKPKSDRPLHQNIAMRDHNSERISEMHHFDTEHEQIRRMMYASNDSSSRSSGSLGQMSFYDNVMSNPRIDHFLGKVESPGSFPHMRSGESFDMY
Assay: protein-binding microarray (RPBM); PBS, 2% BSA, 51.3 ng/ul salmon testes DNA, 50 uM zinc acetate, 200 nM TF, 25 C, 1 h; high values mean tight binding
Settings: protein: recombinant; tags: N-terminal polyhistidine and DsRed monomer fusion (pET32a); label: CyDye5-dUTP incorporated in the synthesized complementary strand; 3' TTTTT single-stranded linker to array surface; dsDNA, one strand shown
In all, about 35,000 sequences were measured (“fluorescence intensity (a.u.)”: median about 10,000, highest 2% from about 52,000 on). The list comes from a sample in which the highest values are over-represented; it also holds close analogues and randomly drawn sequences.
Recorded metric: binding signal

Sequence chain: AGAGATCGAGATTGACACACAACGTGGTTCACGCGTGCGCCGGAGTCACCTAGTGCAG
binding signal: 23100 fluorescence intensity (a.u.)

Sequence chain: TCATTAACACATAATTAATTAAGTACTCCCTCCGTATTTTCGGAGTCACCTAGTGCAG
binding signal: 20200 fluorescence intensity (a.u.)

Sequence chain: GTTGAACTTATTCCAATCAAGGATCACGCATTCACGTTCACGGAGTCACCTAGTGCAG
binding signal: 14100 fluorescence intensity (a.u.)

Sequence chain: GTTAACTGAATATTATATCGAAGAAAACTTGCATTTCAGACGGAGTCACCTAGTGCAG
binding signal: 7980 fluorescence intensity (a.u.)

The reported binding signal of the sequence GGAGATTGACACGTTGGTCTACGTGCCTATGCGTGTGTTCCGGAGTCACCTAGTGCAG was 55600 fluorescence intensity (a.u.)

====

Here the recorded binding signal is given for each entry.
Target: OsWOX13 (Oryza sativa, UniProt Q5QMM3 1-267)
Sequence: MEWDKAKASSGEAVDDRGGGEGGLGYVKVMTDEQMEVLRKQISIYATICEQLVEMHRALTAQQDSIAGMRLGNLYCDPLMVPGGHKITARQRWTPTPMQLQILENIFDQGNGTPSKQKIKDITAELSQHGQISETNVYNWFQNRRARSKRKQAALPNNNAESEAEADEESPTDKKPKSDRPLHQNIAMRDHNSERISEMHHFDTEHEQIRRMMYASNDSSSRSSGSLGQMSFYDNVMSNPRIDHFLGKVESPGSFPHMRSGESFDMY
Test: protein-binding microarray (RPBM); PBS, 2% BSA, 51.3 ng/ul salmon testes DNA, 50 uM zinc acetate, 200 nM TF, 25 C, 1 h; high values mean tight binding
Settings: protein: recombinant; tags: N-terminal polyhistidine and DsRed monomer fusion (pET32a); label: CyDye5-dUTP incorporated in the synthesized complementary strand; 3' TTTTT single-stranded linker to array surface; dsDNA, one strand shown
The full ranking holds about 35,000 sequences; the median of “fluorescence intensity (a.u.)” is about 10,000, and the highest 2% start at about 52,000. The list comes from a sample in which the highest values are over-represented; it also holds close analogues and randomly drawn sequences.

Sequence chain: GTAGTTAATTGTAAACACTGTACTAAGCAGTATACATTTTCGGAGTCACCTAGTGCAG
binding signal: 20300 fluorescence intensity (a.u.)

Below: the item to evaluate.
The reported binding signal of the sequence GTGTCGCCAGTGATTGCAGTTTCAGTTCGAAATTTCTCTACGGAGTCACCTAGTGCAG was 9490 fluorescence intensity (a.u.)

# credit: paper PMC7819943
